Target: UniProtKB Q2FV99
Sequence (Q2FV99 60-206): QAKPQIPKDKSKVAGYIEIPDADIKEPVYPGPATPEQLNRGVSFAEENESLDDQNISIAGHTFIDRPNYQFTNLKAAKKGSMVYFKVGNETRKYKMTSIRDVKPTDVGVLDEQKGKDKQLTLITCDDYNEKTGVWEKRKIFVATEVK
Assay: SrtA enzyme FRET inhibition assay (recombinant sortase A, FRET peptide substrate with LPETG motif)
Conditions: SrtA inhib. concentration, means ±SD (n = 5)
pIC50: −log10 of the molar value.

# compoundStructure, pIC50
rows = [
    ("O=C(Cn1sc2ccccc2c1=O)NNC(=O)C12CC3CC(CC(C3)C1)C2", 5.42),
    ("O=C(Cn1sc2ccccc2c1=O)NC12CC3CC(CC(C3)C1)C2", 5.21),
]

All values here come from patent EP2875815A1.
